All values here come from patent US20230233569A1.

Parameter: pIC50. Scope: all listed entries.
# ASSAYED TARGET: KRAS G12S (Homo sapiens, UniProt P01116+P62937, G12S)
# Sequence (P01116 1-169 isoform P01116-2 G12S limits assumed): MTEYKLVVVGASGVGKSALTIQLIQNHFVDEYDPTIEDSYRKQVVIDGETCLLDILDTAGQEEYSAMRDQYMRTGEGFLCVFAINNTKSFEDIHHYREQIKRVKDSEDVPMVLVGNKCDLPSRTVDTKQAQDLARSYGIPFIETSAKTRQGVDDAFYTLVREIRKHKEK
# Sequence (P62937 whole entry): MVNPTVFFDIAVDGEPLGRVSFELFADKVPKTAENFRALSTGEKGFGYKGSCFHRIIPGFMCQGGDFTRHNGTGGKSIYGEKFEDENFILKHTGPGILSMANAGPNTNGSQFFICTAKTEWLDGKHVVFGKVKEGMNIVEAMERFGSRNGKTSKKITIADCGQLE
# PROTOCOL DETAILS: Disruption of BRAF RBD interaction with Ras (FRET / MOA assay, with Cyclophilin A)
# Format: biochemical
# EXPERIMENTAL CONTEXT: read-out: KRAS G12S FRET data, IC50
pIC50: −log10 of the molar value.
MEASURED METRIC: pIC50

smiles_input=C=CC(=O)N1C[C@@H](C(=O)N(C)[C@H](C(=O)N[C@H]2Cc3cccc(c3)-c3ccc4c(c3)c(c(-c3cccnc3[C@H](C)OC)n4CC)CC(C)(C)COC(=O)[C@@H]3CCCN(N3)C2=O)C(C)C)[C@@H](C(F)(F)F)C1 assayed_target="KRAS G12S (Homo sapiens, UniProt P01116+P62937, G12S)" measured_metric=pIC50 value_reported="5.00 to 6.00"
smiles_input=CCn1c(-c2cccnc2[C@H](C)OC)c2c3cc(ccc31)-c1cc(O)cc(c1)C[C@H](NC(=O)[C@H](C(C)C)N(C)C(=O)[C@@H]1C[C@H]1C)C(=O)N1CCC[C@H](N1)C(=O)OCC(C)(C)C2 assayed_target="KRAS G12S (Homo sapiens, UniProt P01116+P62937, G12S)" measured_metric=pIC50 value_reported="7.00 to 8.00"
